# System: A253 (Head and Neck Carcinoma)
# Protocol: combination Emax (second highest fraction inhibited in the dose matrix, 72 h); higher = more inhibition; extreme values may be limits of the assay
Experimental endpoint: combination Emax
Give bare numbers.

Look over these answered cases.
[[record]]
compound = "CC(=O)Nc1cccc(-n2c(=O)n(C3CC3)c(=O)c3c(Nc4ccc(I)cc4F)n(C)c(=O)c(C)c32)c1 [Trametinib] + Cc1nc(-c2cn3c(n2)-c2ccc(-c4cnn(C(C)(C)C(N)=O)c4)cc2OCC3)n(C(C)C)n1 [Taselisib] (first compound max 1 µM, 7x7, partner max 10 µM)"
assay_system = "A253 (Head and Neck Carcinoma)"
numeric_readout = 0.954

[[record]]
compound = "Cc1c2c(nn1C)CSCc1cc(n(C)n1)CSc1cc(c3ccccc3c1)OCCCc1c(C(=O)O)n(C)c3c-2c(Cl)ccc13 [AZD5991] + CCN(CCO)CCCOc1ccc2c(Nc3cc(CC(=O)Nc4cccc(F)c4)[nH]n3)ncnc2c1 [AZD2811] (first compound max 1 µM, 7x7, partner max 1 µM)"
assay_system = "A253 (Head and Neck Carcinoma)"
numeric_readout = 0.896


Working through the 5 compounds below one at a time, give combination Emax for each.
1. CC(=O)c1c(C)c2cnc(Nc3ccc(N4CCNCC4)cn3)nc2n(C2CCCC2)c1=O [Palbociclib] + CN(CC[C@H](CSC1=CC=CC=C1)NC2=C(C=C(C=C2)S(=O)(=O)NC(=O)C3=CC=C(C=C3)N4CCC(CC4)[C@H](C5=CC=CC=C5C6=CC=C(C=C6)Cl)O)S(=O)(=O)C(F)(F)F)CCO [AZD4320] (first compound max 10 µM, 7x7, partner max 1 µM)
2. CC1(C)CCC(CN2CCN(c3ccc(C(=O)NS(=O)(=O)c4ccc(NCC5CCOCC5)c([N+](=O)[O-])c4)c(Oc4cnc5[nH]ccc5c4)c3)CC2)=C(c2ccc(Cl)cc2)C1 [Venetoclax] + CCN(CCO)CCCOc1ccc2c(Nc3cc(CC(=O)Nc4cccc(F)c4)[nH]n3)ncnc2c1 [AZD2811] (first compound max 1 µM, 7x7, partner max 1 µM)
3. Cc1c2c(nn1C)CSCc1cc(n(C)n1)CSc1cc(c3ccccc3c1)OCCCc1c(C(=O)O)n(C)c3c-2c(Cl)ccc13 [AZD5991] + CC1(C)CCC(CN2CCN(c3ccc(C(=O)NS(=O)(=O)c4ccc(NCC5CCOCC5)c([N+](=O)[O-])c4)c(Oc4cnc5[nH]ccc5c4)c3)CC2)=C(c2ccc(Cl)cc2)C1 [Venetoclax] (first compound max 1 µM, 7x7, partner max 1 µM)
4. COc1nnc2ccc(N3CCC(c4ccc(OCCN5CCN(C)C(=O)[C@H]5C)cc4)CC3)nn12 [AZD5153] + CCN(CCO)CCCOc1ccc2c(Nc3cc(CC(=O)Nc4cccc(F)c4)[nH]n3)ncnc2c1 [AZD2811] (first compound max 1 µM, 7x7, partner max 1 µM)
5. Cc1c2c(nn1C)CSCc1cc(n(C)n1)CSc1cc(c3ccccc3c1)OCCCc1c(C(=O)O)n(C)c3c-2c(Cl)ccc13 [AZD5991] + CN(C)CCCOc1ccc(-c2ccc3ncc4c(c3c2)n(C2CCOCC2)c(=O)n4C)cn1 [AZD0156] (first compound max 1 µM, 7x7, partner max 1 µM)

[reply]
1: 0.202; 2: 0.268; 3: 0.868; 4: 0.444; 5: 0.908

// each listed compound needs a value for combination Emax
1. C=CCn1c(=O)c2cnc(Nc3ccc(N4CCN(C)CC4)cc3)nc2n1-c1cccc(C(C)(C)O)n1 [AZD1775] + C[C@@H]1COCCN1C2=NC(=NC(=C2)C3(CC3)[S@](=N)(=O)C)C4=C5C=CNC5=NC=C4 [AZD6738] (first compound max 1 µM, partner max 10 µM)
2. Cn1cnc2c(F)c(Nc3ccc(Br)cc3Cl)c(C(=O)NOCCO)cc21 [Selumetinib] + CC(C)n1c(=O)n(C)c2cnc3cc(F)c(-c4ccc(OCCCN5CCCCC5)nc4)cc3c21 [AZD1390] (first compound max 10 µM, 7x7, partner max 0.3 µM)

[reply]
1. 0.863
2. 0.18
